Provide the recorded IC50 for the entries that follow.
biological target: human secreted PLA2 (Homo sapiens, UniProt P14555); assay: chromogenic assay of recombinant human secreted phospholipase A2 inhibition (Assay Example 1); settings: mean of 3-5 tests; 40° C., 30 minutes, pH 7.5, 405 nanometers; read-out: Inhibition of human secreted PLA2 IC50 ± mean deviation (3-5 tests)
Sequence (P14555 21-144): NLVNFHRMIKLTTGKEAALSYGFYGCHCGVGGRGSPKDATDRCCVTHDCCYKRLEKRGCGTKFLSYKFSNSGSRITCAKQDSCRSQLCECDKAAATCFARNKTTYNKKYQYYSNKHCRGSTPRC
Give a bare numeral; the unit µM is implied.

The molecule listed as `COc1ccc(Cn2c(C)c(CC(=O)NN)c3cc(OC)ccc32)cc1` has a reported IC50 of 11.7

Just so you know, measured IC50 for `COc1ccc2c(c1)c(CC(=O)NN)c(C)n2Cc1ccccc1-c1ccccc1` came out at 0.26

IC50 measured on `COc1ccc2c(c1)c(CC(=O)NN)c(C)n2Cc1ccc(O)cc1` = 5.96

Lab note: measured IC50 of `COc1ccc2c(c1)c(CC(=O)NN)c(C)n2Cc1cccnc1` was 84.2

Lab book: IC50 of `Cc1c(CC(=O)NN)c2cc(Cl)ccc2n1Cc1cccc(Cl)c1` noted as 1.63

====

target: sPLA2 contraction (Homo sapiens, UniProt P14555); assay: sPLA2-induced contraction of guinea pig lung pleural strips, tissue test (Assay Example 2); parameters: species or system Male Hartley strain guinea pigs; conditions: guinea pig; compound concentration 30 uM; sPLA2 10 ug/ml; read-out: % suppression of sPLA2 contraction at 30 uM
Mark Not met for inhibition at 30 µM values under 70%, and Met for everything at or above.

Ask: Hello, I need to know if `COc1ccc2c(c1)c(CC(=O)NN)c(C)n2Cc1cccc(OCc2ccccc2)c1` has measured inhibition at 30 µM not below 70%. Thanks!
Result: Not met

Ask: Assess whether reported inhibition at 30 µM for `Cc1c(CC(=O)NN)c2ccc(-c3ccccc3)cc2n1Cc1ccccc1` sits at 70% or higher.
Result: Not met

Ask: Hi team, for `CCCc1c(CC(=O)NN)c2cc(OC)ccc2n1Cc1ccccc1` , is the recorded inhibition at 30 µM at or above 70%?
Result: Not met

Ask: Form field: inhibition at 30 µM at least 70%? Entry: `COc1ccc2c(c1)c(CC(=O)NN)c(Br)n2Cc1ccccc1`
Result: Met

Ask: Check if inhibition at 30 µM >= 70% (inclusive). Item: `CCc1c(CC(=O)NN)c2cc(OC)ccc2n1Cc1ccccc1`
Result: Met

Ask: Tell me whether inhibition at 30 µM is at least 70% here: `COc1ccc2c(c1)c(CC(=O)NN)c(C)n2Cc1cccc(O)c1`
Result: Not met

====

molecular target: human secreted PLA2 (Homo sapiens); assay: chromogenic assay of recombinant human secreted phospholipase A2 inhibition (Assay Example 1); conditions: mean of 3-5 tests; 40° C., 30 minutes, pH 7.5, 405 nanometers; read-out: Inhibition of human secreted PLA2 IC50 ± mean deviation (3-5 tests)
So I've got a bunch of compounds here, and I need their IC50 values.
Enter your answer as a number in nM; do not include the unit.

Notebook: `Cc1c(CC(=O)NN)c2cc(F)ccc2n1Cc1ccccc1` , IC50 read as 1490

Briefly, IC50 measured for `CCc1c(CC(=O)NN)c2cc(OC)ccc2n1Cc1ccccc1` : 420

get_value(item= `Cc1c(CC(=O)NN)c2cc(O)ccc2n1Cc1ccccc1` , readout=IC50) returns 1390

So for `COc1ccc2c(c1)c(CC(=O)NN)c(C)n2Cc1cccc(OCc2ccccc2)c1` , the logged IC50 turned out to be 610

// IC50 lookup, compound = `COc1ccc2c(c1)c(CC(=O)NN)c(C)n2Cc1cccc(N)c1` , result: 7120

Lab note: measured IC50 of `Cc1c(CC(=O)NN)c2cc(C(=O)NN)ccc2n1Cc1ccccc1` was 2470

GET /value?item= `COc1ccc2c(c1)c(CC(=O)NN)c(C)n2Cc1ccc2ccccc2n1` &field=IC50 returns 8150

Noted for `COc1ccc2c(c1)c(CC(=O)NN)c(C)n2Cc1ccccc1` : its IC50 reads 860

Record `COc1ccc2c(c1)c(CC(=O)NN)c(C)n2Cc1cccc(O)c1` . Reported IC50: 3000

Record `COc1ccc2c(c1)c(CC(=O)NN)c(C)n2Cc1ccccc1Cl` . Reported IC50: 1710

Documented IC50 of `COc1ccc2c(c1)c(CC(=O)NN)c(Br)n2Cc1ccccc1` : 430

Measured IC50, `COc1ccc2c(c1)c(CC(=O)NN)c(C)n2Cc1ccc(Cl)cc1` : 9280

Memo: `COc1ccc2c(c1)c(CC(=O)NN)c(C)n2Cc1ccccc1OC` , reported IC50: 3260

Quick note, IC50 for `Cc1c(CC(=O)NN)c2cc(C(=O)NN)ccc2n1Cc1cccc(Cl)c1` landed at 2700

The reported value for `COc1ccc2c(c1)c(CC(=O)NN)c(C)n2Cc1ccc(OCc2ccccc2)cc1` in terms of IC50 is 2280

Measured IC50, `Cc1c(CC(=O)NN)c2cc(C(C)(C)C)ccc2n1Cc1ccccc1` : 1020

Looking up `CCOc1ccc2c(c1)c(CC(=O)NN)c(C)n2Cc1ccccc1` , I see its IC50 listed as 800

This collection of values is drawn from patent US5578634A.
